Source of measurements: patent US20100150834A1

Biological target: T1, EphB4 (receptor of Table 1) (Mus musculus (Mouse), UniProt P54761 16-539)
T1 sequence: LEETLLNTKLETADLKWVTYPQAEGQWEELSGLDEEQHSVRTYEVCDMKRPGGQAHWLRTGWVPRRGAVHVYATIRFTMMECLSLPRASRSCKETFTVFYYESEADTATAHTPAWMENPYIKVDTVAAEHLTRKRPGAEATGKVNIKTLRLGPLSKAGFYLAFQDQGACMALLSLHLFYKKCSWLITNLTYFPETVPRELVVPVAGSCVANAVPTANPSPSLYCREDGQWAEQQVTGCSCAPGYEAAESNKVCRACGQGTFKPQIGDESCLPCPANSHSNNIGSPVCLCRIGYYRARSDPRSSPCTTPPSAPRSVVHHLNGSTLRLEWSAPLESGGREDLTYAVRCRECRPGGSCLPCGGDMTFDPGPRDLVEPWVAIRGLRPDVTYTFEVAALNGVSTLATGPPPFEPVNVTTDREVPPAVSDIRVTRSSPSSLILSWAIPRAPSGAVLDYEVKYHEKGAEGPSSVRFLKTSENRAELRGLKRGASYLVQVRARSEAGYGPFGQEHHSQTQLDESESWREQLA
Test: inhibition of ephrin-B2 AP binding to EphB4 (panning receptor); non-biotinylated peptide
Measured Attribute: IC50 (µM)
Respond with the bare value in µM.

(Q) Which IC50 is reported for this binder? TNYLFSPNGPIA (Panned on EphB4; non-biotinylated form) [TNYLFSPNGPIA peptide (SEQ ID NO:24)]
(A) 150
